# ASSAY_DETAILS: Her2 expression decrease, cell viability multiplex – SKBR3 breast tumor cells, AlphaScreen, ATP viability, primary screen (AID 461);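 further: percent of carrier control wells set as 100% viability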
# CONDITIONS_USED: SKBR3 Her2 protein level, 18-24 h, measured here: SKBR3 viability, ATP luminescence, at 10 µM
MEASURED_METRIC: viability (%)
# output: bare number, implied unit %

Query string: Could you please provide reported viability for COC(=O)CCCCCc1ccc(C(C)=O)s1 ? Thanks!
Result string: 86.5

* * *

# ASSAY_DETAILS: RAM pathway blockade in budding yeast – dse1pr::URA3 reporter, 5-FOA selection, pilot screen (AID 869);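 further: 0% = DMSO wells with no growth and 100% = 10 µM 1-NA-PP1 with full growth; RAM network block rescues cells from 5-FOA so hits raise OD615 growth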
# CONDITIONS_USED: S. cerevisiae dse1pr::URA3 5-FOA growth, OD615, 2 d; at 10 µM; stronger effect = higher value; strain carries analog-sensitive mutant Cbk1 kinase
MEASURED_METRIC: inhibition (%)
Numbers only here, please. The scale is %.

>>> reported_value("Cc1ccc(OCCSc2cc(C)nc(N)n2)cc1")
1.12

Query string: Supply measured inhibition of Cc1ccccc1NC(=O)C1CCCN(S(=O)(=O)c2cccc3cccnc23)C1 (stereo unspecified) in your reply.
Result string: 3.01

Query string: Using known records, supply inhibition for CC1=C(C(=O)OC2CCCCC2)C(c2ccco2)C2=C(CC(C)(C)CC2=O)N1 (stereo unspecified)
Result string: 0.115

Query string: Write down inhibition measured for item CC(C)C(=O)Nc1ccc(-c2nc3cccnc3o2)cc1
Result string: 2.22

Query string: Consider the compound O=C(NCCSc1c[nH]c2ccccc12)c1ccc(Br)o1 . State its measured inhibition.
Result string: 1.83

Query string: Name the recorded inhibition of the compound listed here: Cn1c(=O)c(=O)n(C)c2cc(S(=O)(=O)CCC(=O)N3CCOCC3)ccc21
Result string: 0.99
